# experiment.notes: Pharmacokinetic study in rats (IV and PO)
# Assay type: in vivo, Sprague Dawley (SD) rats
# details: male, Sprague Dawley, in vivo; rat, intravenous, 2 mg/kg
quantity: MRT (h)
Numbers only, in h.

If you can, please state the reported MRT value of N#Cc1ccc(O[C@H]2CC[C@H](NC(=O)c3ccc(N4CCC(CN5CCN(c6cc7c(cc6F)C(=O)N(C6CCC(=O)NC6=O)C7=O)CC5)CC4)nn3)CC2)cc1Cl (stereo partly shown) [ARV-110, bavdegalutamide] .
10.2

###

# experiment.notes: Pharmacokinetic study in mice (IV and PO)
# Type: in vivo, ICR mice
# details: male, ICR, in vivo; mouse, oral, 5 mg/kg
quantity: Cmax (ng/mL)
Answers are plain numbers, in ng/mL.

If you can, please state the reported Cmax value of N#Cc1ccc(O[C@H]2CC[C@H](NC(=O)c3ccc(N4CCC(CN5CCN(c6cc7c(cc6F)C(=O)N(C6CCC(=O)NC6=O)C7=O)CC5)CC4)nn3)CC2)cc1Cl (stereo partly shown) [ARV-110, bavdegalutamide] .
612

###

# experiment.notes: Pharmacokinetic study in rats (IV and PO)
# Assay type: in vivo, Sprague Dawley (SD) rats
# details: male, Sprague Dawley, in vivo; rat, intravenous, 2 mg/kg; read-out: Vss
quantity: Vd (L/kg)
Answers are plain numbers, in L/kg.

If you can, please state the reported Vd value of N#Cc1ccc(O[C@H]2CC[C@H](NC(=O)c3ccc(N4CCC(CN5CCN(c6cc7c(cc6F)C(=O)N(C6CCC(=O)NC6=O)C7=O)CC5)CC4)nn3)CC2)cc1Cl (stereo partly shown) [ARV-110, bavdegalutamide] .
5.78

###

# experiment.notes: Hepatic microsomal metabolic stability, rat
# Assay type: in vitro ADME
# details: pH 7.4, rat hepatic microsomes 0.5 mg/mL, 1 mM NADPH, 37 °C, read-out: elimination half-life (T1/2) in hepatic microsomes
# Experimental: The stabilities of ARV-110 in the hepatic microsomal fraction and plasma were investigated for three species (human, rat, and mouse). […] The elimination rate constant (ke) was determined as the slope of the linear regression between the log of the percentage of analyte remaining and the incubation time. […]
quantity: half-life at 1 μM (h)
One number for each entry, in h.

If you can, please state the reported half-life at 1 μM value of N#Cc1ccc(O[C@H]2CC[C@H](NC(=O)c3ccc(N4CCC(CN5CCN(c6cc7c(cc6F)C(=O)N(C6CCC(=O)NC6=O)C7=O)CC5)CC4)nn3)CC2)cc1Cl (stereo partly shown) [ARV-110, bavdegalutamide] .
36.9

###

# experiment.notes: Pharmacokinetic study in mice (IV and PO)
# Format: in vivo, ICR mice
# details: male, ICR, in vivo; mouse, oral, 5 mg/kg
quantity: MRT (h)
Numbers only, in h.

If you can, please state the reported MRT value of N#Cc1ccc(O[C@H]2CC[C@H](NC(=O)c3ccc(N4CCC(CN5CCN(c6cc7c(cc6F)C(=O)N(C6CCC(=O)NC6=O)C7=O)CC5)CC4)nn3)CC2)cc1Cl (stereo partly shown) [ARV-110, bavdegalutamide] .
12.9

###

# experiment.notes: Pharmacokinetic study in rats (IV and PO)
# Assay type: in vivo, Sprague Dawley (SD) rats
# details: male, Sprague Dawley, in vivo; rat, oral, 5 mg/kg
quantity: Cmax (ng/mL)
Numbers only, in ng/mL.

If you can, please state the reported Cmax value of N#Cc1ccc(O[C@H]2CC[C@H](NC(=O)c3ccc(N4CCC(CN5CCN(c6cc7c(cc6F)C(=O)N(C6CCC(=O)NC6=O)C7=O)CC5)CC4)nn3)CC2)cc1Cl (stereo partly shown) [ARV-110, bavdegalutamide] .
110

###

# experiment.notes: Pharmacokinetic study in mice (IV and PO)
# Format: in vivo, ICR mice
# details: male, ICR, in vivo; mouse, intravenous, 2 mg/kg
quantity: clearance (mL/min/kg)
One number for each entry, in mL/min/kg.

If you can, please state the reported clearance value of N#Cc1ccc(O[C@H]2CC[C@H](NC(=O)c3ccc(N4CCC(CN5CCN(c6cc7c(cc6F)C(=O)N(C6CCC(=O)NC6=O)C7=O)CC5)CC4)nn3)CC2)cc1Cl (stereo partly shown) [ARV-110, bavdegalutamide] .
3.02

###

# experiment.notes: Pharmacokinetic study in mice (IV and PO)
# Format: in vivo, ICR mice
# details: male, ICR, in vivo; mouse, intravenous, 2 mg/kg
quantity: Tmax (min)
Numbers only, in min.

If you can, please state the reported Tmax value of N#Cc1ccc(O[C@H]2CC[C@H](NC(=O)c3ccc(N4CCC(CN5CCN(c6cc7c(cc6F)C(=O)N(C6CCC(=O)NC6=O)C7=O)CC5)CC4)nn3)CC2)cc1Cl (stereo partly shown) [ARV-110, bavdegalutamide] .
3

###

# experiment.notes: Pharmacokinetic study in rats (IV and PO)
# Format: in vivo, Sprague Dawley (SD) rats
# details: male, Sprague Dawley, in vivo; rat, intravenous, 2 mg/kg
quantity: AUC(0-t) (ng·h/mL)
Numbers only, in ng·h/mL.

If you can, please state the reported AUC(0-t) value of N#Cc1ccc(O[C@H]2CC[C@H](NC(=O)c3ccc(N4CCC(CN5CCN(c6cc7c(cc6F)C(=O)N(C6CCC(=O)NC6=O)C7=O)CC5)CC4)nn3)CC2)cc1Cl (stereo partly shown) [ARV-110, bavdegalutamide] .
4530

###

# experiment.notes: Pharmacokinetic study in mice (IV and PO)
# Format: in vivo, ICR mice
# details: male, ICR, in vivo; mouse, intravenous, 2 mg/kg
quantity: AUC(0-t) (ng·h/mL)
One number for each entry, in ng·h/mL.

If you can, please state the reported AUC(0-t) value of N#Cc1ccc(O[C@H]2CC[C@H](NC(=O)c3ccc(N4CCC(CN5CCN(c6cc7c(cc6F)C(=O)N(C6CCC(=O)NC6=O)C7=O)CC5)CC4)nn3)CC2)cc1Cl (stereo partly shown) [ARV-110, bavdegalutamide] .
10800

###

# experiment.notes: Pharmacokinetic study in mice (IV and PO)
# Format: in vivo, ICR mice
# details: male, ICR, in vivo; mouse, oral, 5 mg/kg
quantity: half-life (h)
Answers are plain numbers, in h.

If you can, please state the reported half-life value of N#Cc1ccc(O[C@H]2CC[C@H](NC(=O)c3ccc(N4CCC(CN5CCN(c6cc7c(cc6F)C(=O)N(C6CCC(=O)NC6=O)C7=O)CC5)CC4)nn3)CC2)cc1Cl (stereo partly shown) [ARV-110, bavdegalutamide] .
14.6

###

# experiment.notes: Pharmacokinetic study in rats (IV and PO)
# Assay type: in vivo, Sprague Dawley (SD) rats
# details: male, Sprague Dawley, in vivo; rat, oral, 5 mg/kg
quantity: Tmax (h)
Answers are plain numbers, in h.

If you can, please state the reported Tmax value of N#Cc1ccc(O[C@H]2CC[C@H](NC(=O)c3ccc(N4CCC(CN5CCN(c6cc7c(cc6F)C(=O)N(C6CCC(=O)NC6=O)C7=O)CC5)CC4)nn3)CC2)cc1Cl (stereo partly shown) [ARV-110, bavdegalutamide] .
5.5

###

# experiment.notes: Pharmacokinetic study in mice (IV and PO)
# Assay type: in vivo, ICR mice
# details: male, ICR, in vivo; mouse, oral, 5 mg/kg
quantity: Tmax (h)
Answers are plain numbers, in h.

If you can, please state the reported Tmax value of N#Cc1ccc(O[C@H]2CC[C@H](NC(=O)c3ccc(N4CCC(CN5CCN(c6cc7c(cc6F)C(=O)N(C6CCC(=O)NC6=O)C7=O)CC5)CC4)nn3)CC2)cc1Cl (stereo partly shown) [ARV-110, bavdegalutamide] .
4.8

###

# experiment.notes: Pharmacokinetic study in rats (IV and PO)
# Assay type: in vivo, Sprague Dawley (SD) rats
# details: male, Sprague Dawley, in vivo; rat, oral, 5 mg/kg
quantity: AUC(0-inf)

If you can, please state the reported AUC(0-inf) value of N#Cc1ccc(O[C@H]2CC[C@H](NC(=O)c3ccc(N4CCC(CN5CCN(c6cc7c(cc6F)C(=O)N(C6CCC(=O)NC6=O)C7=O)CC5)CC4)nn3)CC2)cc1Cl (stereo partly shown) [ARV-110, bavdegalutamide] .
2890 ng·h/mL

###

# experiment.notes: Pharmacokinetic study in mice (IV and PO)
# Type: in vivo, ICR mice
# details: male, ICR, mouse, in vivo, 5 mg/kg, oral 5 mg/kg vs IV 2 mg/kg, after dose normalization, read-out: Bioavailability
quantity: bioavailability (%)
One number for each entry, in %.

If you can, please state the reported bioavailability value of N#Cc1ccc(O[C@H]2CC[C@H](NC(=O)c3ccc(N4CCC(CN5CCN(c6cc7c(cc6F)C(=O)N(C6CCC(=O)NC6=O)C7=O)CC5)CC4)nn3)CC2)cc1Cl (stereo partly shown) [ARV-110, bavdegalutamide] .
37.9

###

# experiment.notes: Pharmacokinetic study in rats (IV and PO)
# Assay type: in vivo, Sprague Dawley (SD) rats
# details: male, Sprague Dawley, in vivo; rat, intravenous, 2 mg/kg
quantity: clearance
Express the reported value numerically, then name its unit.

If you can, please state the reported clearance value of N#Cc1ccc(O[C@H]2CC[C@H](NC(=O)c3ccc(N4CCC(CN5CCN(c6cc7c(cc6F)C(=O)N(C6CCC(=O)NC6=O)C7=O)CC5)CC4)nn3)CC2)cc1Cl (stereo partly shown) [ARV-110, bavdegalutamide] .
6.89 mL/min/kg
